Target: Gal-1 (Homo sapiens)
Construct: made in house; host or cells: E. coli BL21(DE3)
Sequence (P09382 whole entry): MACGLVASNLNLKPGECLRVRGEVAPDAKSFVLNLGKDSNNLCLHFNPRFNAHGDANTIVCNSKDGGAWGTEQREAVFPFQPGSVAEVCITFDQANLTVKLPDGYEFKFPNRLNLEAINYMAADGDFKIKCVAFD
Test: Pull-down assay with immobilized protein and LSM libraries
Format: binding
Settings: H12 library; 1:1 binding assumed; read-out: Surface mapping KD (apparent)
REPORTED METRIC: Kd (µM)

[a] NC(=O)CC[C@@H](CC(=O)N[C@H]1CCC[C@@H]1C(=O)N[C@H]1CCC[C@@H]1C(N)=O)NC(=O)[C@H]1CCC[C@@H]1NC(=O)[C@H]1CCC[C@@H]1NC(=O)C[C@H](CC(=O)O)NC(=O)[C@H]1CCC[C@@H]1NC(=O)[C@H]1CCC[C@@H]1N [H12 DQ]
[b] N=C(N)NCCC[C@@H](CC(=O)N[C@H]1CCC[C@@H]1C(=O)N[C@H]1CCC[C@@H]1C(N)=O)NC(=O)[C@H]1CCC[C@@H]1NC(=O)[C@H]1CCC[C@@H]1NC(=O)C[C@H](Cc1ccc(O)cc1)NC(=O)[C@H]1CCC[C@@H]1NC(=O)[C@H]1CCC[C@@H]1N [H12 YR]
[c] CC(C)[C@@H](CC(=O)N[C@H]1CCC[C@@H]1C(=O)N[C@H]1CCC[C@@H]1C(=O)N[C@@H](CO)CC(=O)N[C@H]1CCC[C@@H]1C(=O)N[C@H]1CCC[C@@H]1C(N)=O)NC(=O)[C@H]1CCC[C@@H]1NC(=O)[C@H]1CCC[C@@H]1N [H12 VS]
Give the descending Kd ranking for the 3 molecules listed above. A complete answer lists every label in the requested sequence.
c, a, b

---

Molecular target: S100B (Homo sapiens, UniProt P04271)
Construct: made in house; host or cells: Escherichia coli BL21(DE3)
Sequence (P04271 1-92): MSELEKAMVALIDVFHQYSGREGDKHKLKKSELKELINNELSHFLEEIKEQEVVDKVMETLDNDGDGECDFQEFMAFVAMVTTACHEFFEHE
Test: Pull-down assay with immobilized protein and LSM libraries
Assay type: binding
Settings: H14 library; 1:1 binding assumed; read-out: Surface mapping KD (apparent)
Listing of recorded pKd by entry.
Would you please state pKd, meaning minus log10 of the concentration in mol/L, as a bare number?

| COMPOUND | MEASURED RESULT |
| --- | --- |
| N=C(N)NCCC[C@@H](CC(=O)N[C@H]1CCCC[C@@H]1C(N)=O)NC(=O)[C@H]1CCCC[C@@H]1NC(=O)[C@H]1CCCC[C@@H]1NC(=O)C[C@H](Cc1c[nH]c2ccccc12)NC(=O)[C@H]1CCCC[C@@H]1N [H14 WR] | 4.49 |

--- query ---
Reported pKd for C[C@@H](O)[C@@H](CC(=O)N[C@H]1CCCC[C@@H]1C(=O)N[C@H]1CCCC[C@@H]1C(=O)N[C@H](CC(=O)N[C@H]1CCCC[C@@H]1C(N)=O)Cc1ccc(O)cc1)NC(=O)[C@H]1CCCC[C@@H]1N [H14 TY] : what is it?
3.74

---

Listing of recorded Kd by entry.
Biological target: S100A4 (Homo sapiens)
Construct: made in house; host or cells: Escherichia coli BL21(DE3)
Sequence (P26447 whole entry): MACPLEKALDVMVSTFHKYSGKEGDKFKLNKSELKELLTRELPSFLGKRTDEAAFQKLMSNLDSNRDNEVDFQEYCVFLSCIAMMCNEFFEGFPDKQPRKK
Assay: Pull-down assay with immobilized protein and LSM libraries
Assay type: binding
Settings: H14 library; 1:1 binding assumed; read-out: Surface mapping KD (apparent)
Please reply with the bare figure in µM and do not write the unit itself.

| COMPOUND | Kd, µM |
| --- | --- |
| CC[C@H](C)[C@@H](CC(=O)N[C@H]1CCCC[C@@H]1C(=O)N[C@H]1CCCC[C@@H]1C(=O)N[C@@H](CC(N)=O)CC(=O)N[C@H]1CCCC[C@@H]1C(N)=O)NC(=O)[C@H]1CCCC[C@@H]1N [H14 IN] | 321 |
| CC(C)C[C@@H](CC(=O)N[C@H]1CCCC[C@@H]1C(N)=O)NC(=O)[C@H]1CCCC[C@@H]1NC(=O)[C@H]1CCCC[C@@H]1NC(=O)C[C@H](CCC(N)=O)NC(=O)[C@H]1CCCC[C@@H]1N [H14 QL] | 256 |
| CC[C@H](C)[C@@H](CC(=O)N[C@H]1CCCC[C@@H]1C(=O)N[C@H]1CCCC[C@@H]1C(=O)N[C@H](CC(=O)N[C@H]1CCCC[C@@H]1C(N)=O)CC(C)C)NC(=O)[C@H]1CCCC[C@@H]1N [H14 IL] | 2 |
| CC(C)C[C@@H](CC(=O)N[C@H]1CCCC[C@@H]1C(N)=O)NC(=O)[C@H]1CCCC[C@@H]1NC(=O)[C@H]1CCCC[C@@H]1NC(=O)C[C@H](CCCNC(=N)N)NC(=O)[C@H]1CCCC[C@@H]1N [H14 RL] | 51 |

--- query ---
Reported Kd for CSCC[C@@H](CC(=O)N[C@H]1CCCC[C@@H]1C(N)=O)NC(=O)[C@H]1CCCC[C@@H]1NC(=O)[C@H]1CCCC[C@@H]1NC(=O)C[C@H](CO)NC(=O)[C@H]1CCCC[C@@H]1N [H14 SM] : what is it?
26

---

Biological target: Gal-1 (Homo sapiens)
Construct: made in house; host or cells: E. coli BL21(DE3)
Assay: Pull-down assay with immobilized protein and LSM libraries
Assay type: binding
Conditions: H14 library; 1:1 binding assumed; read-out: Surface mapping KD (apparent)
pKd: −log10 of the molar value.
REPORTED METRIC: pKd

| MOLECULE | REPORTED METRIC | MEASURED RESULT |
| --- | --- | --- |
| CC(C)[C@@H](CC(=O)N[C@H]1CCCC[C@@H]1C(N)=O)NC(=O)[C@H]1CCCC[C@@H]1NC(=O)[C@H]1CCCC[C@@H]1NC(=O)C[C@H](Cc1ccccc1)NC(=O)[C@H]1CCCC[C@@H]1N [H14 FV] | pKd | 3.70 |
| NC(=O)C[C@@H](CC(=O)N[C@H]1CCCC[C@@H]1C(N)=O)NC(=O)[C@H]1CCCC[C@@H]1NC(=O)[C@H]1CCCC[C@@H]1NC(=O)C[C@H](Cc1ccc(O)cc1)NC(=O)[C@H]1CCCC[C@@H]1N [H14 YN] | pKd | 3.50 |
| NC(=O)[C@H]1CCCC[C@@H]1NC(=O)C[C@H](Cc1ccc(O)cc1)NC(=O)[C@H]1CCCC[C@@H]1NC(=O)[C@H]1CCCC[C@@H]1NC(=O)C[C@H](Cc1c[nH]c2ccccc12)NC(=O)[C@H]1CCCC[C@@H]1N [H14 WY] | pKd | 3.84 |
| CC(C)[C@@H](CC(=O)N[C@H]1CCCC[C@@H]1C(=O)N[C@H]1CCCC[C@@H]1C(=O)N[C@H](CC(=O)N[C@H]1CCCC[C@@H]1C(N)=O)[C@@H](C)O)NC(=O)[C@H]1CCCC[C@@H]1N [H14 VT] | pKd | 3.46 |

---

Biological target: Gal-1 (Homo sapiens)
Construct: made in house; host or cells: E. coli BL21(DE3)
Experiment: Pull-down assay with immobilized protein and LSM libraries
Assay type: binding
Conditions: H14 library; 1:1 binding assumed; read-out: Surface mapping KD (apparent)
pKd: −log10 of the molar value.
REPORTED METRIC: pKd

[1] CC(C)[C@@H](CC(=O)N[C@H]1CCCC[C@@H]1C(=O)N[C@H]1CCCC[C@@H]1C(=O)N[C@@H](C)CC(=O)N[C@H]1CCCC[C@@H]1C(N)=O)NC(=O)[C@H]1CCCC[C@@H]1N
[2] NC(=O)[C@H]1CCCC[C@@H]1NC(=O)C[C@H](CC(=O)O)NC(=O)[C@H]1CCCC[C@@H]1NC(=O)[C@H]1CCCC[C@@H]1NC(=O)C[C@H](CO)NC(=O)[C@H]1CCCC[C@@H]1N
Compare 1 and 2 and name the one whose reported pKd is smaller. Answer with the label corresponding to your selection.
2

---

Target: RecQ-WH (Escherichia coli)
Construct: coding for residues 408– 523 of E. coli RecQ; made in house; host or cells: E. coli BL21(DE3)
Sequence (P15043 408-523): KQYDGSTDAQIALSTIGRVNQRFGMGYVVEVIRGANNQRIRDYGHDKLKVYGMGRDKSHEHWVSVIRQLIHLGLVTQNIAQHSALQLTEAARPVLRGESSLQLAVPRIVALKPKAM
Test: Pull-down assay with immobilized protein and LSM libraries
Parameters: species or system E. coli
Settings: H12 library; 1:1 binding assumed; read-out: Surface mapping KD (apparent)
Listing of recorded Kd by entry.
Please reply with the bare figure in µM and do not write the unit itself.

| LINE NOTATION | SYSTEM UNDER TEST | MEASURED RESULT |
| --- | --- | --- |
| N=C(N)NCCC[C@@H](CC(=O)N[C@H]1CCC[C@@H]1C(=O)N[C@H]1CCC[C@@H]1C(N)=O)NC(=O)[C@H]1CCC[C@@H]1NC(=O)[C@H]1CCC[C@@H]1NC(=O)C[C@H](Cc1c[nH]c2ccccc12)NC(=O)[C@H]1CCC[C@@H]1NC(=O)[C@H]1CCC[C@@H]1N | RecQ-WH (Escherichia coli) | 206 |

--- query ---
// lookup Kd | system=RecQ-WH (Escherichia coli) | key= CSCC[C@@H](CC(=O)N[C@H]1CCC[C@@H]1C(=O)N[C@H]1CCC[C@@H]1C(=O)N[C@@H](CCCNC(=N)N)CC(=O)N[C@H]1CCC[C@@H]1C(=O)N[C@H]1CCC[C@@H]1C(N)=O)NC(=O)[C@H]1CCC[C@@H]1NC(=O)[C@H]1CCC[C@@H]1N
435

Where these numbers come from: paper PMC8162404
